Recorded values, source the supplement of paper PMC10567573.

Give protein stability index for every item shown.
B1: ADAMTS4 (parent)
chain: HVDPEEPWSPCSARFITDFLDNGY

- Variants of: B1
- Assay Summary: protein stability index of a GFP-peptide fusion (GPS, HEK-293T) (PSI 1-6); higher = more stable;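 further: lentivirally expressed fusions sorted by FACS into six bins by GFP to DsRed ratio, PSI derived from sequencing read proportions per bin multiplied by bin number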
- Condition Notes: c terminus: a fixed tail appended
Please state the value as a number alone, without comment.

## Input State its protein stability index for this variant: L20F
## Output 2.04

## Input State its protein stability index for this variant: F19T
## Output 2.02

## Input State its protein stability index for this variant: F15C
## Output 1.97
